target_entity: GFRα1-RET (Homo sapiens, UniProt P56159)
Construct: expressed in transfected cells; host or cells: MG87 murine fibroblast
Sequence (P56159 25-429 limits assumed): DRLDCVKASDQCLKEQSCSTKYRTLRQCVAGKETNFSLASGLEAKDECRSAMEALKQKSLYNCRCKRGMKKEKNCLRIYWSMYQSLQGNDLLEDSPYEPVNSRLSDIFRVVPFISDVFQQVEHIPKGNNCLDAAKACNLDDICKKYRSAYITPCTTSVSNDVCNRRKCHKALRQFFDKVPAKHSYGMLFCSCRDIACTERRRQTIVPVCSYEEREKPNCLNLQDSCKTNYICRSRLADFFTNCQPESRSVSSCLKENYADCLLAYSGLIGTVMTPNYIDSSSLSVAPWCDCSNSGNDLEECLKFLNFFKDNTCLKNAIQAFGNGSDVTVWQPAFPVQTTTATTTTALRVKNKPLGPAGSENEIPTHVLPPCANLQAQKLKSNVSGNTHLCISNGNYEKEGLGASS
Sequence (P07949 29-1114 partner): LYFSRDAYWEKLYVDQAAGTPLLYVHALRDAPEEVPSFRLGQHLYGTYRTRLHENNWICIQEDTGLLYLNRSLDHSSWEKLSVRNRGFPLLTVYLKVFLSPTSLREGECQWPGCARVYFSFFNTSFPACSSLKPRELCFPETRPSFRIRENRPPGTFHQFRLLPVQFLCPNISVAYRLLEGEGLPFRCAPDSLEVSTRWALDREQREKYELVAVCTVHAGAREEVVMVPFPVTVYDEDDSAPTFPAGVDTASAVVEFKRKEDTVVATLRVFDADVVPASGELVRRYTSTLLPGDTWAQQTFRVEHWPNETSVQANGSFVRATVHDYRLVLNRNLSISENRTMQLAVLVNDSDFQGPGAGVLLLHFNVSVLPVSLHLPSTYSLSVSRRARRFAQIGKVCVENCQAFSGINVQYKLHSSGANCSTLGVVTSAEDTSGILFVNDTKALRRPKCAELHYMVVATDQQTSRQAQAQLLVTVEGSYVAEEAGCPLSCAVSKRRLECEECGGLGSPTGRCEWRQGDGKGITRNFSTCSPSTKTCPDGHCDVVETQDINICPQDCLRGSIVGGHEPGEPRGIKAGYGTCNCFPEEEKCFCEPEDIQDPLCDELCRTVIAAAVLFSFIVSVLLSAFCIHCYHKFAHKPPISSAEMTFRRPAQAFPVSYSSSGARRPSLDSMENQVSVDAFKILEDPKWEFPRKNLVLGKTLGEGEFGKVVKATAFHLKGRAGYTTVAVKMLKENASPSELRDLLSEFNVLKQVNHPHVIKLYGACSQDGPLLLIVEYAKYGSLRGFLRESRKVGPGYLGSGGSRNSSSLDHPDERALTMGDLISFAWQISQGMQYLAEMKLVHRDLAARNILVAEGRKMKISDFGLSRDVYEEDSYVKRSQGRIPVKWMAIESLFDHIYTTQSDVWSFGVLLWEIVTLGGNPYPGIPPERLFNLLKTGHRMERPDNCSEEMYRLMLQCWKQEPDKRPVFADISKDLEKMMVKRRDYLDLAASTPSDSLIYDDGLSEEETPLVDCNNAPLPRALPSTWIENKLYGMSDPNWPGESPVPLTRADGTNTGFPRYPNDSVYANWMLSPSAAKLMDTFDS
assay_protocol: Luciferase assay: activation of Elk1 signaling in reporter-gene cells expressing GFRα1-RET (MG87 murine fibroblast stably transfected with PathDetect Elk-1, GFRα1, and RET)
Type: cell-based
run_conditions: Table 4; MG87 murine fibroblasts with PathDetect Elk-1, GFRα1, RET; 6 concentrations, duplicate, two times independently; agonist/activator activity; read-out: Luciferase Assay EC50
From the text: The purpose of this experiment was to evaluate the GFRα1-RET activity of the compounds 001-060 according to the invention. […]
pEC50: −log10 of the molar value.
reported_property: pEC50

{"smiles_entry": "CCN(CC)S(=O)(=O)c1cccc(N2CCN(C(=O)c3ccc(F)cc3C(F)(F)F)CC2)c1", "observed_value": "4.30 to 5.00"}
{"smiles_entry": "COc1ccc(S(=O)(=O)N2CCN(CCc3ccc(Cl)cc3)CC2)cc1N1CCN(C(=O)c2ccc(F)cc2Cl)CC1", "observed_value": "5.30 to 6.00"}
{"smiles_entry": "COc1ccc(S(=O)(=O)N(C)CC2CCC2)cc1N1CCN(C(=O)c2ccc(F)cc2Cl)CC1", "observed_value": "5.00 to 5.30"}
{"smiles_entry": "COc1ccc(S(=O)(=O)N2CCCC2(C)C)cc1N1CCN(C(=O)c2ccc(F)cc2Cl)CC1", "observed_value": "5.30 to 6.00"}

----------
target_entity: GFRα1-RET (Homo sapiens)
Construct: expressed in transfected cells; host or cells: MG87 murine fibroblast
assay_protocol: Luciferase assay: activation of Elk1 signaling in reporter-gene cells expressing GFRα1-RET (MG87 murine fibroblast stably transfected with PathDetect Elk-1, GFRα1, and RET)
Format: cell-based
run_conditions: Table 4; MG87 murine fibroblasts with PathDetect Elk-1, GFRα1, RET; 6 concentrations, duplicate, two times independently; agonist/activator activity; read-out: Luciferase Assay EC50
pEC50: −log10 of the molar value.
reported_property: pEC50

{"molecule": "COc1ccc(S(=O)(=O)N2CCC(OCc3ccccc3)C2)cc1N1CCN(C(=O)c2ccc(F)cc2Cl)CC1 (stereo not shown)", "target_entity": "GFRα1-RET (Homo sapiens)", "reported_property": "pEC50", "observed_value": "5.30 to 6.00"}
{"molecule": "COc1ccc(S(=O)(=O)N2CC3CN(C(=O)OC(C)(C)C)CC3C2)cc1N1CCN(C(=O)c2ccc(F)cc2Cl)CC1 (stereo not shown)", "target_entity": "GFRα1-RET (Homo sapiens)", "reported_property": "pEC50", "observed_value": "4.30 to 5.00"}
{"molecule": "COc1ccc(S(=O)(=O)N2CCN(CCc3ccc(F)cc3)CC2)cc1N1CCN(C(=O)c2ccc(F)cc2Cl)CC1", "target_entity": "GFRα1-RET (Homo sapiens)", "reported_property": "pEC50", "observed_value": "5.30 to 6.00"}
{"molecule": "COc1ccc(S(=O)(=O)N2CCC(O)(c3ccccc3)CC2)cc1N1CCN(C(=O)c2ccc(F)cc2Cl)CC1", "target_entity": "GFRα1-RET (Homo sapiens)", "reported_property": "pEC50", "observed_value": "5.00 to 5.30"}

----------
target_entity: GFRα1-RET (Homo sapiens, UniProt P56159)
Construct: expressed in transfected cells; host or cells: MG87 murine fibroblast
assay_protocol: Luciferase assay: activation of Elk1 signaling in reporter-gene cells expressing GFRα1-RET (MG87 murine fibroblast stably transfected with PathDetect Elk-1, GFRα1, and RET)
Format: cell-based
run_conditions: text statement on Table 6 results, GFRα1-RET luciferase assay; read-out: EC50
pEC50: −log10 of the molar value.
// reported pEC50 for each item listed

{"compound": "COc1ccc(S(=O)(=O)N2CCC(Cc3ccccc3)CC2)cc1N1CCN(C(=O)c2cc(F)ccc2C(F)(F)F)CC1 [Compound C01, reference compound]", "pEC50": "< 4.30"}
{"compound": "CCN(CC)S(=O)(=O)c1ccc(OC)c(N2CCN(C(=O)c3cc(F)ccc3C(F)(F)F)CC2)c1 [Compound C02, reference compound]", "pEC50": "< 4.30"}
{"compound": "COc1ccc(S(=O)(=O)N2CCC(Cc3ccccc3)CC2)cc1N1CCN(C(=O)c2cc(F)c(F)cc2Cl)CC1", "pEC50": "> 5.00"}
